tested on: rats subjected to adrenalectomy (granuloma around implanted cotton wads); test: granulom test (cotton-pellet test) on rats subjected to adrenalectomy: granuloma growth, thymus weight, body weight increase; assay type: in vivo, rat (Sprague-Dawley); conditions: rat, in vivo
quantityKind: Therapeutic ratio body weight/granuloma

CCCC1O[C@@H]2C[C@H]3[C@@H]4CCC5=CC(=O)C=C[C@]5(C)[C@H]4[C@@H](O)C[C@]3(C)[C@]2(C(=O)COC(=O)c2cc3ccccc3o2)O1 (single isomer, unassigned) [28 B] = > 11.7

In plain terms, CCCC1O[C@@H]2C[C@H]3[C@@H]4CCC5=CC(=O)C=C[C@]5(C)[C@H]4[C@@H](O)C[C@]3(C)[C@]2(C(=O)COC(=O)c2cc3ccccc3o2)O1 (single isomer, unassigned) [28 A] has a documented Therapeutic ratio body weight/granuloma of > 33.3

In plain terms, CCCCC(=O)OCC(=O)[C@@]12OC(CCC)O[C@@H]1C[C@H]1[C@@H]3CCC4=CC(=O)C=C[C@]4(C)[C@@]3(F)[C@@H](O)C[C@@]12C (single isomer, unassigned) [22 B] has a documented Therapeutic ratio body weight/granuloma of > 1.7

In plain terms, CCCCC(=O)OCC(=O)[C@@]12OC(C)O[C@@H]1C[C@H]1[C@@H]3CCC4=CC(=O)C=C[C@]4(C)[C@@]3(F)[C@@H](O)C[C@@]12C (single isomer, unassigned) [18 B] has a documented Therapeutic ratio body weight/granuloma of > 3.3

In plain terms, CCCC1O[C@@H]2C[C@H]3[C@@H]4CCC5=CC(=O)C=C[C@]5(C)[C@H]4[C@@H](O)C[C@]3(C)[C@]2(C(=O)COC(C)=O)O1 (single isomer, unassigned) [27 A] has a documented Therapeutic ratio body weight/granuloma of > 33.3
